// values below are ΔTm; system is Mitogen-activated protein kinase 3 (Homo sapiens)
Sequence (P27361 whole entry): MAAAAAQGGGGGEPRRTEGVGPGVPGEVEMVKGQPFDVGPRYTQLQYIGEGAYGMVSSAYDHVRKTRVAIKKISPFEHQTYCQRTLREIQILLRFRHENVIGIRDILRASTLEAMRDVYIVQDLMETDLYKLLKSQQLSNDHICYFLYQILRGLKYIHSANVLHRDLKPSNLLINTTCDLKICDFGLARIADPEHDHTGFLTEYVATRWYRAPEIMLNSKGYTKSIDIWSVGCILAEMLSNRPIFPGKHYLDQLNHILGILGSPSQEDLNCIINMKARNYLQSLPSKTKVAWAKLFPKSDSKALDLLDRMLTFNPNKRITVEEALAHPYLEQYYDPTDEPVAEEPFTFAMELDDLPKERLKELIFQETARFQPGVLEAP
Your answer is read as °C, so omit the unit and give the number.

# annotated cases, reported ΔTm shown
COMPOUND: CC(C)n1cnc2/c(=N/c3cccc(Cl)c3)nc(NCCO)[nH]c21
TARGET_OF_ASSAY: Mitogen-activated protein kinase 3 (Homo sapiens)
UNITS: °C
ΔTm: 0.2
--
COMPOUND: O=C(O)c1cc(N(Cc2ccccc2O)Cc2cc(O)ccc2O)ccc1O [LAVENDUSTIN A]
TARGET_OF_ASSAY: Mitogen-activated protein kinase 3 (Homo sapiens)
UNITS: °C
ΔTm: 0.3
--
COMPOUND: CN1CCC(Nc2ncc3ncnc(Nc4ccc(F)c(Cl)c4)c3n2)CC1 [FALNIDAMOL]
TARGET_OF_ASSAY: Mitogen-activated protein kinase 3 (Homo sapiens)
UNITS: °C
ΔTm: 1.7

// query # returns recorded ΔTm (system: Mitogen-activated protein kinase 3 (Homo sapiens)) for `Cn1cc(/C=C2/C(=O)Nc3ccc(S(N)(=O)=O)cc32)c2ccccc21`
// result 1.2

// query # returns recorded ΔTm (system: Mitogen-activated protein kinase 3 (Homo sapiens)) for `COc1ccc(S(=O)(=O)N(CCO)c2ccccc2CN(C)C/C=C/c2ccc(Cl)cc2)cc1`
// result 0.1
